TARGET UNDER TEST: Recombinant human renin (Homo sapiens, UniProt P00797)
Sequence (P00797 67-406): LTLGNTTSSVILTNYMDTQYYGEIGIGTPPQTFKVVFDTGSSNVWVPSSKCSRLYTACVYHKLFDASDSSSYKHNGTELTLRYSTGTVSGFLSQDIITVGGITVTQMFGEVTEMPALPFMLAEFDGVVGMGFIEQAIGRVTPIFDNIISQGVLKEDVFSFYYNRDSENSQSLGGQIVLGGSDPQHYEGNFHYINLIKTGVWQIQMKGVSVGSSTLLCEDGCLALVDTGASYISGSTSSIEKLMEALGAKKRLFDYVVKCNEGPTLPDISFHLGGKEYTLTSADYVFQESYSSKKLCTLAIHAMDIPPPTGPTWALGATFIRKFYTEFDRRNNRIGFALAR
PROTOCOL NOTES: Inhibitory activity against human renin (fluorogenic peptide substrate)
Assay type: biochemical
REPORTED CONDITIONS: 50% inhibitory concentration (IC50) against human renin, 37° C. for 1 hour
MEASURED QUANTITY: IC50 (nM)
Record the value in nM, omitting the unit from your answer.

Solved cases (3 shown):
COMPOUND | UNIT ABBREV | IC50
COCCCCc1cc([C@@H](C)N(C(=O)[C@H]2CNC[C@@H](COC)O2)C2CC2)cc(OC)n1 [Example 304] | nM | 0.7
COC(=O)NCCCc1cc(C(C)N(C(=O)[C@H]2CNCCO2)C2CC2)sc1-c1ccc(N)nc1 (stereo partly shown) [Example 425] | nM | 8.8
COC[C@H]1CO[C@@H](C(=O)N(C2CC2)[C@H](C)c2cc(CCCNC(=O)OC)n(C(C)C)n2)CN1 [Example 300] | nM | 2.8

Request: Entry COC(=O)NCCCc1cc([C@@H](C)N(C(=O)[C@H]2CNCCO2)C2CC2)nc2ccc(F)cc12 [Example 142] has what IC50?
Response: 0.5
